- Target Of Assay: calmodulin-depending cyclic nucleotide phosphodiesterase (PDE)
- Assay Protocol: Calmodulin (CaM) inhibitory activity: inhibition of Ca/calmodulin-dependent PDE activity
- Format: biochemical
- Measurement Context: concentration showing 50% inhibition of PDE activity potentiated by CaM; CaM and PDE from bovine brain, [3H]-cGMP, 30°C, 10 minutes
- Description: The calmodulin inhibitory activity of a compound was evaluated by using its effect of inhibiting calmodulin-depending cyclic nucleotide phosphodiesterase (PDE) as an index. The assay for PDE inhibitory activity was carried out by the following procedure described by Thompson (Advances in Cyclic Nucleotide Research, 10, 69, 1979) with a modification. […] The radioactivity of the supernatant solution was measured by a liquid scintillation counter. […]
Record form. Attribute: IC50. Fill in for each entry.
The response must be a number in µM with no trailing unit.

So for COc1cc2c(CCN3CCN(c4cccc(Cl)c4C)CC3)nn(Cc3c[nH]cn3)c2cc1OC [Example 15] , the logged IC50 turned out to be 5.5

So for COc1ccc(Cn2nc(CCN3CCN(c4cccc(Cl)c4C)CC3)c3cc(OC)c(OC)cc32)cc1OC [Example 12] , the logged IC50 turned out to be 3.1

So for NCCCCCCNS(=O)(=O)c1cccc2c(Cl)cccc12 [Example W-7, reference compound] , the logged IC50 turned out to be 33.5

Each recorded value in this set is attributed to patent EP0624584B1.
